# Tested on: S. mutans (ATCC 25175)
# measurement-protocol: Agar diffusion test (paper disc), antibacterial substance alone
# Assay type: cell-based, Streptococcus mutans
# recorded-conditions: 5 μL of 1 mM substance on 6 mm paper disc, 24 h; positive control 10 μL/ml ampicillin
property-measured: diameter of the S. mutans inhibition zone, 1 mM antibacterial substance alone
Provide a numeric answer, followed by its unit.

CC(C)=CCc1cc(C(=O)/C=C/c2ccc(O)cc2)c(O)cc1O ... 14.51 mm
CC1(C)C=Cc2c(ccc(C(=O)/C=C/c3ccc(O)cc3)c2O)O1 ... 8.71 mm
CC1(C)S[C@@H]2[C@H](NC(=O)[C@H](N)c3ccccc3)C(=O)N2[C@H]1C(=O)O [Positive control group, ampicillin, reference compound] ... 22.2 mm

compound CC(C)=CCC[C@@H](C)c1ccc(C)c(O)c1 [No. 1-1, xanthorrhizol] , diameter of the S. mutans inhibition zone, 1 mM antibacterial substance alone observed: 6 mm
